- Measured on: Bifunctional purine biosynthesis protein ATIC (Homo sapiens)
- Sequence (P31939 whole entry): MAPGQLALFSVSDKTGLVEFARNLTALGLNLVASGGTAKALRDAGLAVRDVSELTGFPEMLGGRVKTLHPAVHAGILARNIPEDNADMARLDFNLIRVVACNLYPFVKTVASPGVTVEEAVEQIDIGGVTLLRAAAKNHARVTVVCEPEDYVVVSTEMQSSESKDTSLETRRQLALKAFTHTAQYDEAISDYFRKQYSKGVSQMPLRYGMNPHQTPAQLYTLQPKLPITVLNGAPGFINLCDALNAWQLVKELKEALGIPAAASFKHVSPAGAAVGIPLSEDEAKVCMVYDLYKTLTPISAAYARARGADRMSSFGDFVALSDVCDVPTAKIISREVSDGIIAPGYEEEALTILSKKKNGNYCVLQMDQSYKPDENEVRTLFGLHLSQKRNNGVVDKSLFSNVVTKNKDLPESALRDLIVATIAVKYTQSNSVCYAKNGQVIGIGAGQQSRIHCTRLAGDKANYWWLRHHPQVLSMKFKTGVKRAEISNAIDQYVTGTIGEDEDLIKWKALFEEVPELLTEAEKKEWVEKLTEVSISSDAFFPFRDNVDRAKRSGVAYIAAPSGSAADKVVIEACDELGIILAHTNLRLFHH
- Assay text: Inhibition of human AICAR Tfase
Provide the reported IC50 of each item.
Value expressed in µM; do not type the unit.

Problem: Look up IC50: O=C(O)C1=C/C(=C/C(c2ccccc2)c2cc(C(=O)O)c(O)c3ccccc23)c2ccccc2C1=O (centres undefined)
Result: 204

Problem: Same read-out for NS(=O)(=O)c1cccc2cc(/N=N/c3cccc4c(S(=O)(=O)O)cccc34)ccc12 ?
Result: 0.6

Problem: Follow-up entry: C[C@]12CC[C@H]3[C@@H](CCC4=CC(=O)CC[C@@]43C)[C@@H]1CC[C@@H]2C(=O)COS(=O)(=O)c1ccc(Br)cc1
Result: 13.9

Problem: Another: CC1=NN(c2cc(Cl)c(S(=O)(=O)O)cc2Cl)C(=O)C1/N=N/c1ccc(S(=O)(=O)O)cc1 (centres undefined)
Result: 20.1
